- assay.comment: Plasma concentration after 4 hr at a dose of 10 mg/kg when administered intraperitoneally
- experimental.parameters: ip

| line.notation | concentration at 4 h [ng/mL] |
| --- | --- |
| N[C@](CC1c2ccccc2Oc2ccccc21)(C(=O)O)[C@H]1C[C@@H]1C(=O)O | 39.9 |

====

- assay.comment: Time of maximum concentration achieved in rat plasma when administered intravenously at a dose of 10 mg/kg
- Format: ADME, organism-based
- Parameters: dose 10 mg/kg, route intravenous
- experimental.parameters: iv
value.type: Tmax (min)

| line.notation | reported |
| --- | --- |
| N[C@](CC1c2ccccc2Oc2ccccc21)(C(=O)O)[C@H]1C[C@@H]1C(=O)O | 15 |

====

- assay.comment: Brain concentration after 2 hr at a dose of 10 mg/kg when administered intraperitoneally
- experimental.parameters: ip
value.type: concentration at 2 h (ng/g)

| line.notation | value.type | reported |
| --- | --- | --- |
| N[C@](CC1c2ccccc2Oc2ccccc21)(C(=O)O)[C@H]1C[C@@H]1C(=O)O | concentration at 2 h | 202 |

====

- System: Rattus norvegicus
- assay.comment: Area under curve was evaluated in rat brain when administered intravenously at a dose of 10 mg/kg for infinite hours
- Assay type: ADME, organism-based
- Set-up: time infinity, dose 10 mg/kg, route intravenous
- experimental.parameters: in vivo, iv

| line.notation | AUC [ng·h/mL] |
| --- | --- |
| N[C@](CC1c2ccccc2Oc2ccccc21)(C(=O)O)[C@H]1C[C@@H]1C(=O)O | 1840 |

====

- assay.comment: in vivo
- experimental.parameters: plasma, ip, 10 mg/kg
- Description: Plasma concentration after 0.25 hr at a dose of 10 mg/kg when administered intraperitoneally
value.type: concentration at 0.25 h

| line.notation | reported |
| --- | --- |
| N[C@](CC1c2ccccc2Oc2ccccc21)(C(=O)O)[C@H]1C[C@@H]1C(=O)O | 14300 ng/mL |

====

- assay.comment: Brain concentration after 1 hr at a dose of 10 mg/kg when administered perorally
- experimental.parameters: po
value.type: concentration at 1 h (ng/g)

| line.notation | value.type | unit.descriptor | reported |
| --- | --- | --- | --- |
| N[C@](CC1c2ccccc2Oc2ccccc21)(C(=O)O)[C@H]1C[C@@H]1C(=O)O | concentration at 1 h | ng/g | 2.1 |

====

- assay.comment: Brain concentration after 0.5 h at a dose of 10 mg/kg when administered intraperitoneally
- experimental.parameters: ip

| line.notation | concentration at 0.5 h / ng/g |
| --- | --- |
| N[C@](CC1c2ccccc2Oc2ccccc21)(C(=O)O)[C@H]1C[C@@H]1C(=O)O | 246 |

====

- assay.comment: Brain concentration after 0.5 h at a dose of 100 mg/kg when administered perorally
- experimental.parameters: po

| line.notation | concentration at 0.5 h [ng/g] |
| --- | --- |
| N[C@](CC1c2ccccc2Oc2ccccc21)(C(=O)O)[C@H]1C[C@@H]1C(=O)O | 5.1 |

====

- Tested on: Rattus norvegicus
- assay.comment: Area under curve was evaluated in rat plasma when administered intraperitoneally at a dose of 10 mg/kg for infinite hours
- Type: ADME, organism-based
- Design: time infinity, dose 10 mg/kg, route intraperitoneal
- experimental.parameters: in vivo, ip
value.type: AUC (ng·h/mL)

| line.notation | system.under.test | unit.descriptor | reported |
| --- | --- | --- | --- |
| N[C@](CC1c2ccccc2Oc2ccccc21)(C(=O)O)[C@H]1C[C@@H]1C(=O)O | Rattus norvegicus | ng·h/mL | 12800 |

Recorded values, source ChEMBL document CHEMBL1131460.
